# TARGET_ENTITY: Gal(a1-4)Gal(b1-4)GlcNAc
# PROTOCOL_NOTES: glycan array binding signal (z-score within array); higher = stronger binding
# TEST_CONDITIONS: glycan notation: IUPAC condensed, linker removed
Many of the other results were omitted from the sample, so the strongest signals are more common in it than they were.
glycan array binding signal (z-score) below 4 gives Criterion not met; glycan array binding signal (z-score) at or above it gives Criterion met.

Item CBM32-5 (Clostridium perfringens) (protein) MGSSHHHHHHSSGLVPRGSHMASALPQGNMKATATSEHPDVGNEGLAKFAIDGKENTIWHTKYNPVEELPQSITLELGGSYEINKFTYLPRSGAKNGNITKYELHVSEDGNNFRKISEGNWDDSGSLKTLKFNSTKATHVKLVALEGVGGFASAAELNVFA with glycan array binding signal (z-score) of 4 or above?
Criterion not met

Dear colleague, could you confirm whether HysACBM (Streptococcus pneumoniae), Q54873 (protein) KNLVENGDFGQTEDGSSPWTGSKAQGWSAWVDQKNSADASTRVIEAKDGAITISSHEKLRAALHRMVPIEAKKKYKLRFKIKTDNKIGIAKVRIIEESGKDKRLWNSATTSGTKDWQTIEADYSPTLDVDKIKLELFYETGTGTVSFKDIELVEVADQLS has glycan array binding signal (z-score) at or above 4?
Criterion not met

Could you tell me if the measured glycan array binding signal (z-score) of AcfC (Vibrio cholerae), Q57410 (protein) MKSKNRFLLISLLSFSTSVFADVNLYGPGGPHVPLIKVAESFEKSQSKRVNITFGPQATWNDKAKKNADILFGASEHSALAIAEGHSERFSKFNIHPVFMREAIILVKKGNPKNIKGMADLLKPGIGIVVNDGAGVSNTSGTAVWEDSVGRMKNVEKLQAFRSNIHVFAPNSGSARKAFVDGEDIDAWITWVDWAIANPTIGDMVRMEDEYRIYRDFNVVLAKNPSSEAIDFFDYLTKSKDAEAIFQHYGWFK reaches 4 or more?
Criterion not met

API: above_or_equal(metric=glycan array binding signal (z-score), cutoff=4) for item Epa13 (Candida glabrata) (protein) MGSSHHHHHHSSGLVPRGSHMASDSSENGYAHGCSPSIRAKLKPGLSMEIYSYALRPTDDHCWDSAYLDPMFPRTGYLTHKLLGKAEGIIGPLNFLAKNPACIPAVSTLPLAFHFPKPFTITNFTMLLYGYLSPKKTGKYTFKLLADDLLLMNFGADNAFDCCSHDATKDNIGEYVAYSVWPGVNKNVTVYLESGIYYPLRLFFNNRDAIAQLDFAYYFNDSPIRQTDFSGMFFSIPDSVKCPANI
Criterion met

Could you please find out whether Epa6 (Candida glabrata), Q6DTM7_CANGB (protein) MGSSHHHHHHSSGLVPRGSHMKDDYSSSLSNNNLGWTDPTEFPLGCSPNVTTPKNGLSMELYSYDYLKSGSNPCWDAAYLDPNYPRTGYKSHRLLAKVENVAGNINFYYHAPMGCTSLFDTLPQAYNYRTPLTMTNFTMLLYGYFKPKVTGYHTFTISADDLLFVNFGAGNAFDCCKRESSADDFGNYQAYAVWGSQTAKDDLTVHLDAGLYYPIRIFFNNRDNDGALSLTLKTESDPNPVIDFSDYFYSFDDTKDGCPGLVSYDTS has glycan array binding signal (z-score) that meets 4 or exceeds it?
Criterion met
